Cited source for all entries: patent US20150337037A1

Target: T1, human chemokine receptor CCR6 (human, UniProt P51684 1-374)
T1 construct: whole, on cells; gene was synthesized (codon-optimized); a C-terminal tag may be present on the expressed protein; also called CCR6 human; human CCR6
T1 sequence (looked up): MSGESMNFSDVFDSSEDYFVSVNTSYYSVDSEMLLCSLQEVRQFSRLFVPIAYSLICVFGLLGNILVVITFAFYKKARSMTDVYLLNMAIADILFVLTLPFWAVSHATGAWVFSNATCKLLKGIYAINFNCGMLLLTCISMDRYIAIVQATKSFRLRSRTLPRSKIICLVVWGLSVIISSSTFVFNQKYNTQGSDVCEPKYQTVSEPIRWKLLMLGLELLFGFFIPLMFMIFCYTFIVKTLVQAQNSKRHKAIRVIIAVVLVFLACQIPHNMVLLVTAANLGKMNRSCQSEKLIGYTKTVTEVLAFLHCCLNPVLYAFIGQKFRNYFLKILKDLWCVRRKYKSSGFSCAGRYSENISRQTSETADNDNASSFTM
Assay: flow cytometry on cells expressing the target, IgG1 titration, anti-human Fc-PE
MEASUREMENT KIND: EC50 (nM)
All answers are understood in nM, so give the number only.

Query block: Report EC50 for MSM-R609 IgG1 (antibody, V domains shown, Fully human IgG1) VH: EVQLLESGGGLVQPGGSLRLSCAASGFTFTASYMSWVRQAPGKGLEWVSNISPKYGNTYYADSVKGRFTISRDNSKNTLYLQMNSLRAEDTAVYYCARSIRSAKYSYYGIDYWGQGTLVTVSS VL: EIVLTQSPGTLSLSPGERATLSCRASQSVSSSYLAWYQQKPGQAPRLLIYGASSRATGIPDRFSGSGSGTDFTLTISRLEPEDFAVYYCQQSASAPVTFGQGTKVEIKR please.
Result block: 1
